Target: T1, native human ApoC3 (human, UniProt P02656 21-99, biotinylated in the captured-antigen assays (Tables 6 and 8); sites not stated)
T1 construct: also called nhuApoC3; native huApoC3
T1 sequence (P02656 21-99): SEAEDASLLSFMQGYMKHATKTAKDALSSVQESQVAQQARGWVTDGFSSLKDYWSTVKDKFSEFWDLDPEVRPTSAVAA
Assay: SPR, IgG captured via anti-human Fc, ApoC3 analyte 200 nM
Quantity: pKd
Hey, just a heads up that pKd is the negative log base 10 of the concentration in molar.

Take a look at these entries with their results.
Binder: 29B03 IgG (antibody, V domains shown) VH: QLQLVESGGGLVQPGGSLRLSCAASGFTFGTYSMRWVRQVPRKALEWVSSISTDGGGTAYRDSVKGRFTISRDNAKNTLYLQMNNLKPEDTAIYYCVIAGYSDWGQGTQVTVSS VL: DVVLTQTPGSLSVVPGESASISCKAGQNLVHPDGKTYLYWLLQKPGQSPQRLIYQVSNRDSGVPDRFTGSGSGTDFTLKISGVKVEDAGVYYCAQGTYWPKTFGQGTKLEIK
Value Measured: 9.46
--
Binder: 5E5 WT IgG (antibody, V domains shown, Full-length IgG captured by an anti-human Fc antibody) VH: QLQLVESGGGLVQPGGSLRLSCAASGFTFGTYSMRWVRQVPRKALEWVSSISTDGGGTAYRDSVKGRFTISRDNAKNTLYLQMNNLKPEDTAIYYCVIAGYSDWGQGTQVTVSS VL: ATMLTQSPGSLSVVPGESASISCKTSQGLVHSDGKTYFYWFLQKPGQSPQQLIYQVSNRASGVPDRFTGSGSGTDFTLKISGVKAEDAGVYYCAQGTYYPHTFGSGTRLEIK
Value Measured: 9.11
--
Binder: 29F10 IgG (antibody, V domains shown) VH: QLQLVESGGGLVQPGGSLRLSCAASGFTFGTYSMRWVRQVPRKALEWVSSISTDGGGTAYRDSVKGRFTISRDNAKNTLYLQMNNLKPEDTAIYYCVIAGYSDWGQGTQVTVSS VL: DVVLTQTPGSLSVVPGEPASVSCKASQSLVHPDGKTYLYWLLQKPGQSPQRLIYQVSNRGSGVPDRFTGSGSGTDFTLEISGVKAEDAGVYYCAQGTYWPKTFGQGTKLEIK
Value Measured: 8.79

Read the next record carefully.
**Query** So what's the measured pKd for this one? 29A05 IgG (antibody, V domains shown) VH: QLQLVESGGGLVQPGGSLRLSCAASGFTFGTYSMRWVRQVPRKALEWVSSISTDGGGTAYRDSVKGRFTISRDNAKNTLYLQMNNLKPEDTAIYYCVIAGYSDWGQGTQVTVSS VL: DVVLTQTPGSLSVVPGESASISCKASQSLVYSDGKTYLYWLLQKPGQSPQRLIYQVSNRDSGVPDRFTGSGSGTDFTLKISGVKVEDAGVYYCAQGTYWPKTFGQGTKLEIK
**Result** 8.16
